SUBJECT_OF_TEST: yeast α-glucosidase (Saccharomyces cerevisiae, UniProt P53341)
Construct: purchased Sigma Aldrich
Sequence (P53341 whole entry): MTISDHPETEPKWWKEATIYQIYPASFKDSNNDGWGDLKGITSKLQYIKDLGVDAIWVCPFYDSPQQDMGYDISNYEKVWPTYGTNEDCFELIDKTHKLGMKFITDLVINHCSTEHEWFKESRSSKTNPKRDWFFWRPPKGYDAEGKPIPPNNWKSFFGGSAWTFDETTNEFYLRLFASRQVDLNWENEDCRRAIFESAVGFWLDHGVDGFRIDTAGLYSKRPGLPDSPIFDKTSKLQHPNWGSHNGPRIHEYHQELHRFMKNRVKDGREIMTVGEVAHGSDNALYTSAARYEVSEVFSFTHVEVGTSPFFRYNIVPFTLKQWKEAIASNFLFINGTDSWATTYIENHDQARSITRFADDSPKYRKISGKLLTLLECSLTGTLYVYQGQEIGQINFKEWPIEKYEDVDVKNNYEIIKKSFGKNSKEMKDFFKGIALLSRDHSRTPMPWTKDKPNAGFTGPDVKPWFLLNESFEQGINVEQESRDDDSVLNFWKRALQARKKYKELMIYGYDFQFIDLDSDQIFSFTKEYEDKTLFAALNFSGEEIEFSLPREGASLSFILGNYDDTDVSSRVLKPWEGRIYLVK
TEST_NAME: biochemical
For each record, write down the corresponding IC50.
Respond with the bare value in µM.

## Input IC50 for COc1cc(C(=O)Oc2c(OC)ccc3cc4[n+](cc23)CCc2cc3c(cc2-4)OCO3)cc(OC)c1OC ?
## Output 23.9

## Input Recorded IC50 of COc1ccc2cc3[n+](cc2c1OC(=O)c1ccc(C(C)(C)C)cc1)CCc1cc2c(cc1-3)OCO2 , please.
## Output 3.53

## Input What does the record list as IC50 for COc1ccc2cc3[n+](cc2c1OC(=O)c1ccccc1F)CCc1cc2c(cc1-3)OCO2 ?
## Output 24.9

## Input For the compound CCc1ccc(C(=O)Oc2c(OC)ccc3cc4[n+](cc23)CCc2cc3c(cc2-4)OCO3)cc1 , what IC50 is on record?
## Output 12.5

## Input Item COc1ccc2cc3[n+](cc2c1OC(=O)c1cccc(F)c1)CCc1cc2c(cc1-3)OCO2 has what recorded IC50?
## Output 32.8

## Input Any idea what its IC50 is? The compound is COc1ccccc1C(=O)Oc1c(OC)ccc2cc3[n+](cc12)CCc1cc2c(cc1-3)OCO2
## Output 19.5

## Input // IC50 lookup, key: COc1cccc(C(=O)Oc2c(OC)ccc3cc4[n+](cc23)CCc2cc3c(cc2-4)OCO3)c1
## Output 11.6

## Input Would you kindly share the measured IC50 for COc1ccc2cc3[n+](cc2c1OC(=O)c1ccc(C)cc1)CCc1cc2c(cc1-3)OCO2 ?
## Output 17.5
